Origin of the recorded values: paper PMC9037210

assayed_target: hCA XII (Homo sapiens)
Construct: made in house
Sequence (O43570 25-354): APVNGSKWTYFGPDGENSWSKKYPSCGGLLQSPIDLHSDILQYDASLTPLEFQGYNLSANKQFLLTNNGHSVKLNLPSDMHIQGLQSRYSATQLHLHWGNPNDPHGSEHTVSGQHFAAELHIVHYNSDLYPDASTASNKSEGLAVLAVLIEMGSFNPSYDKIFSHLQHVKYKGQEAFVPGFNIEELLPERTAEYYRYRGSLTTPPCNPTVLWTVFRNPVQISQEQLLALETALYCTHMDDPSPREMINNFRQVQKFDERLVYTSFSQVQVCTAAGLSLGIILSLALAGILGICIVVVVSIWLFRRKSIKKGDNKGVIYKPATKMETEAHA
test_method_notes: stopped-flow CO2 hydrase assay, hCA XII
Format: biochemical
settings: ratio of KI for hCA I and II relative to hCA XII
Method: The newly synthesised MPCs (3 and 5a–o) were assessed for their CA inhibition activity employing the stopped-flow CO2 hydrase assay[29] for constitutional hCA (I/II) isoforms and cancer-linked hCA (IX/XII) isoforms. The CA inhibition activity for the herein reported MPC derivatives was evaluated against the hCA isoforms I, II, IX, and XII using stopped-flow CO2 hydrase test[7]^,[33–36] (see the Supplementary Material). Carbonic anhydrase inhibition assay […]
Would you mind telling me the reported Selectivity index (SI) (KI off-target CA/KI target CA) Towards hCA XII of each entry?

Example compounds with recorded Selectivity index (SI) (KI off-target CA/KI target CA) Towards hCA XII:
Cc1nc(-c2cc3ccccc3oc2=O)ccc1C(=O)/C=C/c1ccc([N+](=O)[O-])cc1; >9.17
Cc1nc(-c2cc3ccccc3oc2=O)ccc1C(=O)/C=C/c1ccc(Cl)cc1; >52.63
COc1ccc(/C=C/C(=O)c2ccc(-c3cc4ccccc4oc3=O)nc2C)cc1; >35.71
Cc1ccc(/C=C/C(=O)c2ccc(-c3cc4ccccc4oc3=O)nc2C)cc1; >12.19
Cc1ccc(/C=C/C(=O)c2ccc(-c3cc4ccccc4oc3=O)nc2C)o1; >52.63

Please state, for each entry, its recorded Selectivity index (SI) (KI off-target CA/KI target CA) Towards hCA XII.
1. Cc1nn(-c2ccccc2)cc1/C=C/C(=O)c1ccc(-c2cc3ccccc3oc2=O)nc1C
2. Cc1nc(-c2cc3ccccc3oc2=O)ccc1C(=O)/C=C/c1ccccc1
3. Cc1nc(-c2cc3ccccc3oc2=O)ccc1C(=O)/C=C/c1ccccn1
4. Cc1nc(-c2cc3ccccc3oc2=O)ccc1C(=O)/C=C/c1cccc2ccccc12
5. Cc1nc(-c2cc3ccccc3oc2=O)ccc1C(=O)/C=C/c1ccc(N2CCOCC2)cc1
6. COc1cc(/C=C/C(=O)c2ccc(-c3cc4ccccc4oc3=O)nc2C)cc(OC)c1OC

[">5.62", ">19.61", ">108.70", ">4.67", ">55.56", ">7.75"]
